assay: Hepatobiliary transport study in rats; type: in vivo, Sprague-Dawley rats; settings: Sprague-Dawley, rat, liver, iv, 5 mg/kg, i.v. RSV 5 mg/kg, with DDI (multiple p.o. CP 27 mg/kg), read-out: Liver Tmax (converted)
VALUE TYPE: Tmax

>>> recorded_measurement("CC(C)c1nc(N(C)S(C)(=O)=O)nc(-c2ccc(F)cc2)c1/C=C/[C@@H](O)C[C@@H](O)CC(=O)O")
"1.72 min"

---

target: OATP1B1 (Homo sapiens, UniProt Q9Y6L6)
Sequence (Q9Y6L6 whole entry): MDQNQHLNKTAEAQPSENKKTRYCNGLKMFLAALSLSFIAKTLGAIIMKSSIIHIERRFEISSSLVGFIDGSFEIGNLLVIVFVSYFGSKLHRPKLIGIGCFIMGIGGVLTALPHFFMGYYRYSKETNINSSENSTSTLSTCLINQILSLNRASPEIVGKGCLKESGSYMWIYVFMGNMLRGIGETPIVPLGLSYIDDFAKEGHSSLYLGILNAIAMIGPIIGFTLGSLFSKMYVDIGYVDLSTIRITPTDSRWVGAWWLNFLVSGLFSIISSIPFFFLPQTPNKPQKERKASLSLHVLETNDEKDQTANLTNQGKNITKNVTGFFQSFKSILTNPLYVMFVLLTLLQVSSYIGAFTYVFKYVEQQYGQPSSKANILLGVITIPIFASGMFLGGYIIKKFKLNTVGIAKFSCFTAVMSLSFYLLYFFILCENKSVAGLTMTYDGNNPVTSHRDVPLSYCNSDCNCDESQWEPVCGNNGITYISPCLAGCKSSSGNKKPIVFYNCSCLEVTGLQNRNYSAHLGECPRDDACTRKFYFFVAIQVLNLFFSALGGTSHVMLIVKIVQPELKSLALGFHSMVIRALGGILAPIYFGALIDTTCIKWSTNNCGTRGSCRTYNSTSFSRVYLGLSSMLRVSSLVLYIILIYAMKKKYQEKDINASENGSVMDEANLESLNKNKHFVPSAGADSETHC
pIC50: −log10 of the molar value.
VALUE TYPE: pIC50

>>> recorded_measurement("COC(=O)[C@H](c1ccccc1Cl)N1CCc2sccc2C1")
4.56

---

assay: Hepatobiliary transport study in rats; format: in vivo, Sprague-Dawley rats; settings: Sprague-Dawley, rat, liver/plasma, intravenous, i.v. RSV 5 mg/kg, with DDI (multiple p.o. CP 27 mg/kg), read-out: Liver AUC0-5min/Plasma AUC0-5min
VALUE TYPE: Kp

>>> recorded_measurement("CC(C)c1nc(N(C)S(C)(=O)=O)nc(-c2ccc(F)cc2)c1/C=C/[C@@H](O)C[C@@H](O)CC(=O)O [RSV, rosuvastatin]")
1.38

---

Protein target, amino acids: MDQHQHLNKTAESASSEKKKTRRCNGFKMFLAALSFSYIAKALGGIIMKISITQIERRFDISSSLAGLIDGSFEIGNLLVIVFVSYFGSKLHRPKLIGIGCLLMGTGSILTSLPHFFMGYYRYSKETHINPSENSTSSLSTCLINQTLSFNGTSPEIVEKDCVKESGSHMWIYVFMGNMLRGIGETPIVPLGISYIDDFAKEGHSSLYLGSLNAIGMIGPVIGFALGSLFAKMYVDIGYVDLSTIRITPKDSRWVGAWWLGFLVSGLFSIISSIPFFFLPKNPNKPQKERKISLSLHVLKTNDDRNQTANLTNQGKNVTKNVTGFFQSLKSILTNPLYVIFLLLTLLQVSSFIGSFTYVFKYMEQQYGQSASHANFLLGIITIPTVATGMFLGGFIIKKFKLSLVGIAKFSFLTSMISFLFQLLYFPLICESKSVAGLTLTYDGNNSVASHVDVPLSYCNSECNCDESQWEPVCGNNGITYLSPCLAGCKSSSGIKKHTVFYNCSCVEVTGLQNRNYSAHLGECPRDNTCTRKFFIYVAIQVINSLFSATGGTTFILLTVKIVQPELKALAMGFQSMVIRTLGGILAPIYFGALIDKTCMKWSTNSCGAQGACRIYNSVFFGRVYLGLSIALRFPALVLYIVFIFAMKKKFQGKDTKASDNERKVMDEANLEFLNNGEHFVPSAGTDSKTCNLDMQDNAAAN
pIC50: −log10 of the molar value.
VALUE TYPE: pIC50

>>> recorded_measurement("COC(=O)[C@H](c1ccccc1Cl)N1CCc2sccc2C1")
"< 4.30"

---

assay: Hepatobiliary transport study in rats; type: in vivo, Sprague-Dawley rats; conditions: Sprague-Dawley, rat, plasma, iv, 5 mg/kg, i.v. RSV 5 mg/kg, with DDI (multiple p.o. CP 27 mg/kg)
VALUE TYPE: Cmax (µg/mL)

>>> recorded_measurement("CC(C)c1nc(N(C)S(C)(=O)=O)nc(-c2ccc(F)cc2)c1/C=C/[C@@H](O)C[C@@H](O)CC(=O)O")
56
